Test: Photochromic properties of lens samples (2 mm, compound in the mass of cross-linked matrix I or II) exposed to UV radiation from a xenon lamp
Type: physicochemical
Conditions: lens sample, Matrix II (50/50 D121 / PEGDMA 400 copolymer)
From the text: The matrix used in accordance with the present invention may be one of two types: A homopolymer of the monomer DIACRYL 121 (D121 : tetraethoxylated Bisphenol A dimethylmethacrylate), marketed by Akzo Nobel; or A copolymer comprised of a 50/50 mixture by weight of D121 (as above) and polyethylene glycol dimethacrylate (Molecular weight = 400) (PEGDMA 400). […]
Rule: λmax: the maximum absorption in the visible spectrum after UV irradiation under 500 nm gives false, otherwise true.

[[record]]
compound = "C1=CC(c2ccccc2)(c2ccccc2)Oc2ccc3ccccc3c21 [Control, 3,3-bisphenyl-3H-naphtho[2,1-b]pyran, reference compound]"
assigned_label = "false"


INPUT: Does λmax: the maximum absorption in the visible spectrum after UV irradiation meet or surpass 500 nm for COc1ccc(C2(c3ccc(N4CCCCC4)cc3)C=Cc3c(c(C(=O)N4CCCCC4)cc4ccccc34)O2)c(OC)c1 (centres unmarked) ?
OUTPUT: true

----------
Test: Photochromic properties of lens samples (2 mm, compound in the mass of cross-linked matrix I or II) exposed to UV radiation from a xenon lamp
Type: physicochemical
Settings: lens sample, Matrix I (homopolymer of DIACRYL 121)
The following compounds are listed with their measured T0 : the transmission before exposure to UV values.
Quick note: give the figure in %, leave out the unit.

For orientation, consider the following solved cases.
[[record]]
compound = "CN(C)c1ccc(C2(c3ccc(N(C)C)c4ccccc34)C=Cc3c(c(C(=O)N4CCOCC4)cc4ccccc34)O2)cc1 (stereo not shown) [Example 4]"
unit_of_measurement = "%"
recorded_result = 65.0

[[record]]
compound = "Cc1ccc(NC(=O)c2cc3ccccc3c3c2OC(c2ccccc2)(c2ccccc2)C=C3)cc1 [Example 1]"
unit_of_measurement = "%"
recorded_result = 87.9

[[record]]
compound = "COc1ccc(C2(c3ccc(OC)cc3OC)C=Cc3c(c(C(=O)N4CCc5ccccc54)cc4ccccc34)O2)c(OC)c1 [Example 5]"
unit_of_measurement = "%"
recorded_result = 85.6

[[record]]
compound = "COc1ccc(C2(c3ccc(OC)c(OC)c3)C=Cc3c(c(C(=O)N4CCOCC4)cc4ccccc34)O2)c(OC)c1 (stereo not shown) [Example 7]"
unit_of_measurement = "%"
recorded_result = 88.0

[[record]]
compound = "COc1ccc(C2(c3ccc(N4CCCCC4)cc3)C=Cc3c(c(C(=O)N4CCCCC4)cc4ccccc34)O2)c(OC)c1 (stereo not shown) [Example 8]"
unit_of_measurement = "%"
recorded_result = 85.4


INPUT: Report T0 : the transmission before exposure to UV for COc1ccc(C2(c3ccc(OC)cc3OC)C=Cc3c(c(C(=O)N4CCOCC4)cc4ccccc34)O2)c(OC)c1 [Example 2]
OUTPUT: 85.7

INPUT: Please give the documented T0 : the transmission before exposure to UV of COc1ccc(C2(c3ccc(OC)cc3OC)C=Cc3c(c(C(=O)N4CCOCC4)cc4ccccc34)O2)cc1 (stereo not shown) [Example 6]
OUTPUT: 85.4

----------
Property: λmax: the maximum absorption in the visible spectrum after UV irradiation; scope: individual compounds
Assay: Photochromic properties of lens samples (2 mm, compound in the mass of cross-linked matrix I or II) exposed to UV radiation from a xenon lamp
Format: physicochemical
Settings: lens sample, Matrix I (homopolymer of DIACRYL 121)
Provide only the numeric value, understood in nm.

[[record]]
compound = "COc1ccc(C2(c3ccc(OC)cc3OC)C=Cc3c(c(C(=O)N4CCOCC4)cc4ccccc34)O2)cc1 (stereo not shown) [Example 6]"
unit_of_measurement = "nm"
recorded_result = 510

[[record]]
compound = "Cc1ccc(NC(=O)c2cc3ccccc3c3c2OC(c2ccccc2)(c2ccccc2)C=C3)cc1 [Example 1]"
unit_of_measurement = "nm"
recorded_result = 477

[[record]]
compound = "COc1ccc(C2(c3ccc(OC)cc3OC)C=Cc3c(c(C(=O)N4CCOCC4)cc4ccccc34)O2)c(OC)c1 [Example 2]"
unit_of_measurement = "nm"
recorded_result = 514

[[record]]
compound = "CN(C)c1ccc(C2(c3ccc(N(C)C)c4ccccc34)C=Cc3c(c(C(=O)N4CCOCC4)cc4ccccc34)O2)cc1 (stereo not shown) [Example 4]"
unit_of_measurement = "nm"
recorded_result = 556

[[record]]
compound = "COc1ccc(C2(c3ccc(OC)c(OC)c3)C=Cc3c(c(C(=O)N4CCOCC4)cc4ccccc34)O2)c(OC)c1 (stereo not shown) [Example 7]"
unit_of_measurement = "nm"
recorded_result = 512

[[record]]
compound = "COc1ccc(C2(c3ccc(N4CCCCC4)cc3)C=Cc3c(c(C(=O)N4CCCCC4)cc4ccccc34)O2)c(OC)c1 (stereo not shown) [Example 8]"
unit_of_measurement = "nm"
recorded_result = 570


// below: λmax: the maximum absorption in the visible spectrum after UV irradiation requested for another compound
INPUT: Supply measured λmax: the maximum absorption in the visible spectrum after UV irradiation of COc1ccc(C2(c3ccc(OC)cc3OC)C=Cc3c(c(C(=O)N4CCc5ccccc54)cc4ccccc34)O2)c(OC)c1 [Example 5] in your reply.
OUTPUT: 514
